# Target Or System: T1, IL-10Rα.G7.A3.G7 I-OnuI homing endonuclease variant (Artificial (Ophiostoma novo-ulmi I-OnuI …))
# T1 chain: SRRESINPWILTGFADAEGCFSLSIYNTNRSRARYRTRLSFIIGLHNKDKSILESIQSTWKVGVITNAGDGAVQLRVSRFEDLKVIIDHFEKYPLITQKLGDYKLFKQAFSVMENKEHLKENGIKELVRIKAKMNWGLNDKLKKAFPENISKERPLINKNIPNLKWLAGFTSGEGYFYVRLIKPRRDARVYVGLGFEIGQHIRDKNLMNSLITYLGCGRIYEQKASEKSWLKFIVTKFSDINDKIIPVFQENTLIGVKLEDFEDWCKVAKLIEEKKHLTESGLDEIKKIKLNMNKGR
# Test Method Notes: flow; yeast surface display substrate titration; stated as sub-nanomolar affinity, exact value only in figure
# Details: tags: yeast surface display
pKd: −log10 of the molar value.
Readout Kind: pKd

[[record]]
binder = "IL-10Rα exon 2 HE target site (dsDNA) DNA 1: GGTGGAAAAATTCTGCTTCAAA DNA 2: TTTGAAGCAGAATTTTTCCACC"
readout_value = "> 9.00"

